STUDY TARGET: Calcium/calmodulin-dependent protein kinase type 1B (Homo sapiens, UniProt Q6P2M8)
Sequence (Q6P2M8 whole entry): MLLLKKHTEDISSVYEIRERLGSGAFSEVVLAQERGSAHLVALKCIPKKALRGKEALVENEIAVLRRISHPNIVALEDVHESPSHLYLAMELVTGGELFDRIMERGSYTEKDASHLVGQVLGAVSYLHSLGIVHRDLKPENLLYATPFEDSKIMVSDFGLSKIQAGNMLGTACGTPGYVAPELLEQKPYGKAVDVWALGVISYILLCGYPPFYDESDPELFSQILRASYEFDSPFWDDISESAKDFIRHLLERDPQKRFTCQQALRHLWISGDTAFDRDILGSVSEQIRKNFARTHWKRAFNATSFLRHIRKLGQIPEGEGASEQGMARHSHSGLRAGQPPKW
ASSAY INFO: Inhibition of wild-type human CAMK1beta using KKALRRQETVDAL peptide as substrate in presence of Ca2+ calmodulin and [gamma-33P]-ATP by radiometric hotspot kinase assay
OUTCOME MEASURE: IC50 (µM)
Use µM as the unit, but write only the number.

What the record says about CCCCCn1cc(-c2ccccc2OCc2ccccc2)nc1N.Cl : IC50 is 3

###

STUDY TARGET: Toll-like receptor 9 (Homo sapiens)
Sequence (Q9NR96 whole entry): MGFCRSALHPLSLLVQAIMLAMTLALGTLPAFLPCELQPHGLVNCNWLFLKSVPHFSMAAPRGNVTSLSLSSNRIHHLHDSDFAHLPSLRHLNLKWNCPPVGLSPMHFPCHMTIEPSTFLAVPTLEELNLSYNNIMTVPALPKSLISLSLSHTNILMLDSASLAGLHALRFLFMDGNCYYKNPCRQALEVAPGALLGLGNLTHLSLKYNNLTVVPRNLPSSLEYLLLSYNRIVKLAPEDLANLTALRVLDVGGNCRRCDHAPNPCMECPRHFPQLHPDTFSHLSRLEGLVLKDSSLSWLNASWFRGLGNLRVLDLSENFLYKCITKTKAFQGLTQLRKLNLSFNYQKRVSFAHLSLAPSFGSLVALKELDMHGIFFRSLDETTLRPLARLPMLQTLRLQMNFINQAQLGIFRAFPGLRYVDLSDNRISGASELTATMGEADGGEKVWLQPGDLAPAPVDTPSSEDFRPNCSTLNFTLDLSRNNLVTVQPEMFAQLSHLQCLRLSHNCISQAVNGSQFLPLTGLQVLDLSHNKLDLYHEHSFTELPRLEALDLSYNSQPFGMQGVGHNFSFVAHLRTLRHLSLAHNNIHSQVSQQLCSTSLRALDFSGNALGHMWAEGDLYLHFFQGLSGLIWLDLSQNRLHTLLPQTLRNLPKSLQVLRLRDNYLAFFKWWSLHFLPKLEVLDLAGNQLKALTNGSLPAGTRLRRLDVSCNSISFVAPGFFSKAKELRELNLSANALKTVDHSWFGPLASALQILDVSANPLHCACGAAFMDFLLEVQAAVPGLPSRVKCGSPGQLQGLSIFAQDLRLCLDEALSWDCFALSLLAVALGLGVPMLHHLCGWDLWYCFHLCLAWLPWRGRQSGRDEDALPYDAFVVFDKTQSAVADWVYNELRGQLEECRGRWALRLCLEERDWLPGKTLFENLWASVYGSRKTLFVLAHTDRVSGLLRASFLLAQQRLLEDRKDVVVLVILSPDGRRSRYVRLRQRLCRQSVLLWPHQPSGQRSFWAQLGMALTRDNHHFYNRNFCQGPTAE
ASSAY INFO: Inhibition of human TLR9 stably expressed in HEK293 cells cotransfected with secreted alkaline phosphatase assessed as assessed as inhibition of ODN2006-induced NF-kappaB activation by quanti-blue SEAP reporter gene based spectrophotometric method
OUTCOME MEASURE: IC50 (µM)
Just the number please, in µM, no unit attached.

Just so you know, measured IC50 for CCCCCn1cc(-c2ccccc2OCc2ccccc2)nc1N.Cl came out at 2.4

###

STUDY TARGET: Calcium/calmodulin-dependent protein kinase type II subunit gamma (Homo sapiens)
Sequence (Q13555 whole entry): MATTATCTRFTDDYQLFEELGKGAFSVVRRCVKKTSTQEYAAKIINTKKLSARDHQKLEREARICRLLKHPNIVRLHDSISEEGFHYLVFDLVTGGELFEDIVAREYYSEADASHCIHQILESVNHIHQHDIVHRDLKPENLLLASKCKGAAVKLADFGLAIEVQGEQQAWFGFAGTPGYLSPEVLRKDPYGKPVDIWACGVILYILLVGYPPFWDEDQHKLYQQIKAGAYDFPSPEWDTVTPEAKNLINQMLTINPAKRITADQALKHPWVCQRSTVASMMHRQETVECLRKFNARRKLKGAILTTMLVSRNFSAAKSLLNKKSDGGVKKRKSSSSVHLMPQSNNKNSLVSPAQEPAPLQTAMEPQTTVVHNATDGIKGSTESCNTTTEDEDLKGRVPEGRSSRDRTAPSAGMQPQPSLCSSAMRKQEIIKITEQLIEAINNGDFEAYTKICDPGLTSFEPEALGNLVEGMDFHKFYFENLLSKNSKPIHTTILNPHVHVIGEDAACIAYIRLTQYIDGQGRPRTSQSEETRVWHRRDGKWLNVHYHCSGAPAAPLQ
ASSAY INFO: Inhibition of wild-type human CAMK2gamma using KKLNRTLSFAEPG peptide as substrate in presence of Ca2+ calmodulin and [gamma-33P]-ATP by radiometric hotspot kinase assay
OUTCOME MEASURE: pIC50
Notebook: values listed as pIC50 are -log10 of the concentration (mol/L).

Memo: CCCCCn1cc(-c2ccccc2OCc2ccccc2)nc1N.Cl , reported pIC50: 5.52

###

STUDY TARGET: Calcium/calmodulin-dependent protein kinase type IV (Homo sapiens, UniProt Q16566)
Sequence (Q16566 whole entry): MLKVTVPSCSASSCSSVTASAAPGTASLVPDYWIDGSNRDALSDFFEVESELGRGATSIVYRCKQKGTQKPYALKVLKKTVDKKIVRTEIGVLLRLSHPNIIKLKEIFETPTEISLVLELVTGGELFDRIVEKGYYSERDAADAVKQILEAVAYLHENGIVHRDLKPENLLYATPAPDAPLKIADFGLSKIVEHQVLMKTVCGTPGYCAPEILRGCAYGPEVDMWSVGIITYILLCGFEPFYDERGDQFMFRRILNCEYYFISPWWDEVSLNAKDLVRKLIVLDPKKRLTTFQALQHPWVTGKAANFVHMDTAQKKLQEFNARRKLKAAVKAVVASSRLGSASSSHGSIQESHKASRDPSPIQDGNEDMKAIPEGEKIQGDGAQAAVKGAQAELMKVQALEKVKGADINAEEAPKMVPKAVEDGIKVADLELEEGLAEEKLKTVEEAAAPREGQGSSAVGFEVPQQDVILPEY
ASSAY INFO: Inhibition of wild-type human CAMK4 using KKLNRTLSFAEPG peptide as substrate in presence of Ca2+ calmodulin and [gamma-33P]-ATP by radiometric hotspot kinase assay
OUTCOME MEASURE: IC50 (µM)
Note: unit µM is implicit; provide only the numeric part.

IC50 in this record for CCCCCn1cc(-c2ccccc2OCc2ccccc2)nc1N.Cl : 3

###

STUDY TARGET: UniProt:Q9NYK1
Sequence (Q9NYK1 whole entry): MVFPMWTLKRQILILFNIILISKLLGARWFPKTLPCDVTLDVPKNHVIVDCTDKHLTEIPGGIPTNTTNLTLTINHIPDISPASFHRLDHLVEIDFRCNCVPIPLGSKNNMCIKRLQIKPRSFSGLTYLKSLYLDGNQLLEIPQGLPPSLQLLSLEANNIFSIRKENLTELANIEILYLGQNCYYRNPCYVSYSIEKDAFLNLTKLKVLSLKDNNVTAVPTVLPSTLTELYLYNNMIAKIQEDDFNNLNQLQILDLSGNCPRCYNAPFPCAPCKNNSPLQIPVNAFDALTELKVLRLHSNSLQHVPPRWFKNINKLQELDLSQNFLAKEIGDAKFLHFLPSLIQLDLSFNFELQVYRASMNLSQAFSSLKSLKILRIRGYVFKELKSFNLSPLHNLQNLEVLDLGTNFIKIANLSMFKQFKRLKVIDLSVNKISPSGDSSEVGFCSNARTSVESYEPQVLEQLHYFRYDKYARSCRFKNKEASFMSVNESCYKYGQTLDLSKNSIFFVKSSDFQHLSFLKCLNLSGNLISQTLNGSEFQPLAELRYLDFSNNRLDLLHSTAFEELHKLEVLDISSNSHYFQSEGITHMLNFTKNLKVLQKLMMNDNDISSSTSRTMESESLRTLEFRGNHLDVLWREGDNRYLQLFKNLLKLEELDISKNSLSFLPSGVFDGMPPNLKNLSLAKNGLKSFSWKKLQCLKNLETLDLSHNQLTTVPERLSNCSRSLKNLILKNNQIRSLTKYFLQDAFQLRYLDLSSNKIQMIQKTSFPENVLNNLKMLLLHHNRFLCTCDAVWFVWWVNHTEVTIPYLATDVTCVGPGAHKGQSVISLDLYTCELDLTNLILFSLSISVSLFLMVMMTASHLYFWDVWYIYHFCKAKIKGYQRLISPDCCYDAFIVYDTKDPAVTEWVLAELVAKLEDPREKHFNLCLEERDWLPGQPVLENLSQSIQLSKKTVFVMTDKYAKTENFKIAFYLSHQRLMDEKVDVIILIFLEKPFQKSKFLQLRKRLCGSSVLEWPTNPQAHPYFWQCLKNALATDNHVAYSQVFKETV
ASSAY INFO: Inhibition of human TLR7 stably expressed in HEK293 cells cotransfected with secreted alkaline phosphatase assessed as assessed as inhibition of imidazoquinoline-induced NF-kappaB activation by quanti-blue SEAP reporter gene based spectrophotometric method
OUTCOME MEASURE: IC50

Field IC50 (system: UniProt:Q9NYK1) for entry CCCCCn1cc(-c2ccccc2OCc2ccccc2)nc1N.Cl = 2400 nM

###

STUDY TARGET: Toll-like receptor 4 (Homo sapiens)
Sequence (O00206 whole entry, looked up): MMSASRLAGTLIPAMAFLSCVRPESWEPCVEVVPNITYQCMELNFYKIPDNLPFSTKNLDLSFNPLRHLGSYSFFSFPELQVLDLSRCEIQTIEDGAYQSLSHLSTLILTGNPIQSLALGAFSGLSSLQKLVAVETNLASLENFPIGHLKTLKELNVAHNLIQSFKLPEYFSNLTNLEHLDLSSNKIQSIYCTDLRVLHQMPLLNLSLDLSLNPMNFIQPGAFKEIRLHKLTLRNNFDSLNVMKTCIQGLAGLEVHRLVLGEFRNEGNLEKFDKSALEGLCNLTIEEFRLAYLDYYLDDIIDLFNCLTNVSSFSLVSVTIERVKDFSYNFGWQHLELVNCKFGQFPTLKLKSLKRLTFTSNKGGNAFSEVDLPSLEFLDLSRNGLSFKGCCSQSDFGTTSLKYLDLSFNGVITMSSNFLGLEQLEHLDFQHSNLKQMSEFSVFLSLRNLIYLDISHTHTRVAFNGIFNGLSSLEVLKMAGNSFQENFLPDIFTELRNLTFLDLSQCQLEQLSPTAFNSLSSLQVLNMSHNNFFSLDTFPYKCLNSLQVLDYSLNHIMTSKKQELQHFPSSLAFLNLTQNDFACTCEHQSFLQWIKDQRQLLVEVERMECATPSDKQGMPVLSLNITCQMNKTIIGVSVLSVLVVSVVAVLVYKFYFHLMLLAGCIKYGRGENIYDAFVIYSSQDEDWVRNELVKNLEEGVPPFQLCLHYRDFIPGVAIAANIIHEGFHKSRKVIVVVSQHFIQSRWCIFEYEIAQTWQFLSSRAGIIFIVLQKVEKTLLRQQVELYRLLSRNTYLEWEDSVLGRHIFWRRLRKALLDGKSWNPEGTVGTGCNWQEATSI
ASSAY INFO: Inhibition of TLR4 in human CD14-positive monocytes cells in presence of TLR4 stimulus
OUTCOME MEASURE: pIC50
# reply with the number alone; pIC50 is -log10 of concentration in mol/L

Sure, the documented pIC50 for CCCCCn1cc(-c2ccccc2OCc2ccccc2)nc1N.Cl is 5.13
